- Tested on: 186277-243-T-J2-PDC multi-cell spheroid viability;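 also: spheroids exposed to compounds for seven days before viability reading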
- assay overview: Anticancer human tumor 186277-243-T-J2-PDC patient-derived colon adenocarcinoma cell line growth inhibition [PI3K]; active = viability on the fitted dose curve at most 10% of control; inactive = the rest
- setup conditions: second compound 0.00316 µM; first compound 10 µM
Thanks in advance; please answer with one of these: active, inactive

Please let me know the test result on file for CC1(C)CCC(CN2CCN(c3ccc(C(=O)NS(=O)(=O)c4ccc(NCC5CCOCC5)c([N+](=O)[O-])c4)c(Oc4cnc5[nH]ccc5c4)c3)CC2)=C(c2ccc(Cl)cc2)C1 + CC(Nc1ccc2c(c1)OCCn1cc(N3C(=O)OCC3C(F)F)nc1-2)C(N)=O .
active

Please let me know the test result on file for C#Cc1c(F)ccc2cc(O)cc(-c3ncc4c(N5CC6CCC(C5)N6)nc(OCC56CCCN5CC(F)C6)nc4c3F)c12 (stereo not given) + COc1c(OCCCN2CCOCC2)ccc2c3n(c(=NC(=O)c4cnc(N)nc4)nc12)CCN3 .
active

Please let me know the test result on file for CC1(C)CCC(Nc2ncc(C(F)(F)F)c(-c3c[nH]c4c(P(C)(C)=O)c(C#N)ccc34)n2)CN1 (stereo not given) + CC(Nc1ccc2c(c1)OCCn1cc(N3C(=O)OCC3C(F)F)nc1-2)C(N)=O .
active

Please let me know the test result on file for C[C@@H](NC(=O)c1ncnc(N)c1Cl)c1ncc(C(=O)Nc2cc(C(F)(F)F)c(Cl)cn2)s1 + COc1c(OCCCN2CCOCC2)ccc2c3n(c(=NC(=O)c4cnc(N)nc4)nc12)CCN3 .
inactive

Please let me know the test result on file for C#Cc1c(F)ccc2cc(O)cc(-c3ncc4c(N5CC6CCC(C5)N6)nc(OCC56CCCN5CC(F)C6)nc4c3F)c12 (stereo not given) + CC(Nc1ccc2c(c1)OCCn1cc(N3C(=O)OCC3C(F)F)nc1-2)C(N)=O .
inactive

Cited source for all entries: PubChem BioAssay AID1963983
